- System: ATR-driven phosphorylation of Chk1 kinase at Serine 345 in HT-29 colorectal adenocarcinoma cells
- test-details: pCHK1 cellular assay (CHK1 p-Ser345 AlphaScreen SureFire)
- Assay type: cell-based
- setup-conditions: Homo sapiens, HT-29, HT-29 cells, 4-nitroquinoline N-oxide 12 uM; read-out: Cell IC50 (pCHK1 IC50 values)
outcome-measure: IC50 (nM)

[[record]]
compound = "C[C@@H]1Cc2ncnc(N3CC(NS(=O)(=O)C4CC4)C3)c2CN1c1ccnc2[nH]ccc12"
test_value = 83

[[record]]
compound = "CCOc1cc(N2Cc3c(ncnc3C3CCN(S(C)(=O)=O)CC3)C[C@H]2C)c2cc[nH]c2n1"
test_value = 10

[[record]]
compound = "C[C@@H]1Cc2ncnc(N3CCC(O)CC3)c2CN1c1cc(Cl)nc2[nH]ccc12"
test_value = 28

[[record]]
compound = "CCOc1cc(N2Cc3c(ncnc3C3CCN(S(C)(=O)=O)CC3)C[C@H]2CF)c2cc[nH]c2n1 [Example 55b]"
test_value = 30

[[record]]
compound = "C[C@@H]1Cc2ncnc(N3CCC[C@@H](C(C)(C)O)C3)c2CN1c1cc(Cl)nc2[nH]ccc12"
test_value = 10


I: CNC(=O)[C@H]1CCCN(c2ncnc3c2CN(c2cc(Cl)nc4[nH]ccc24)[C@H](C)C3)C1
II: C[C@@H]1Cc2ncnc(N3CCCC(C(C)(C)O)C3)c2CN1c1cc(Cl)nc2[nH]ccc12 (stereo in doubt)
Query: When the recorded IC50 values are compared, which is smaller: that of I or that of II ? Indicate which entry you chose by stating its label.
Reply: I

---

- System: ATR-driven phosphorylation of Chk1 kinase at Serine 345 in HT-29 colorectal adenocarcinoma cells
- test-details: pCHK1 cellular assay (CHK1 p-Ser345 AlphaScreen SureFire)
- Assay type: cell-based
- setup-conditions: Homo sapiens, HT-29, HT-29 cells, 4-nitroquinoline N-oxide 12 uM; read-out: Cell IC50 (pCHK1 IC50 values)
- Experimental: Inhibitors of ATR kinase are effective at inhibiting the ATR-driven phosphorylation of the downstream target Chk1 kinase at Serine 345, following the addition of 4-nitroquinoline N-oxide, a chemical used to induce DNA damage. Cellular IC50 for the inhibitors of ATR described herein were measured in HT-29 colorectal adenocarcinoma cells. […]
outcome-measure: IC50 (nM)

[[record]]
molecule = "COC1CCN(c2ncnc3c2CN(c2cc(Cl)nc4[nH]ccc24)[C@H](C)C3)CC1"
u = "nM"
test_value = 48

[[record]]
molecule = "C[C@@H]1Cc2ncnc(N3CC[C@H](S(C)(=O)=O)C3)c2CN1c1cc(Cl)nc2[nH]ccc12"
u = "nM"
test_value = 51

[[record]]
molecule = "C[C@@H]1Cc2ncnc(N3CCC(S(C)(=O)=O)CC3)c2CN1c1cc(Cl)nc2[nH]ccc12 [Example 9, bis(trifluoroacetate)]"
u = "nM"
test_value = 25


1: C[C@@H]1Cc2ncnc(N3CCCC(C#N)C3)c2CN1c1ccnc2[nH]ccc12 (stereo partly shown)
2: C[C@@H]1Cc2ncnc(N3CCC(C(C)(C)O)CC3)c2CN1c1cc(Cl)nc2[nH]ccc12
3: CCS(=O)(=O)N1CCCC(c2ncnc3c2CN(c2cc(Cl)nc4[nH]ccc24)[C@H](C)C3)C1 (stereo partly shown)
4: C[C@@H]1Cc2ncnc(N3C[C@H]4CC[C@@H](C3)C4NS(C)(=O)=O)c2CN1c1cc(Cl)nc2[nH]ccc12 (stereo partly shown)
Query: Kindly order the items shown according to IC50, from the highest value down. Kindly provide the labels arranged according to the requested ordering.
Reply: 3, 1, 4, 2
